Exercise: state measured logP for each of the molecules provided.
Numbers only.

{"columns": ["structure notation", "logP"],
 "data": [
  ["CCNC(=O)c1cccc(C)c1", 1.32]
]}

# return logP for each item in the list
1. CC(C)N(C(=O)c1ccccc1)C(C)C
2. Cc1ccc(C(=O)N(C)C)cc1
3. CCN(CC)C(=O)Cc1ccccc1
4. CC(C)N(C(=O)Cc1ccccc1)C(C)C
5. CC(C)N(C(=O)c1ccccc1Cl)C(C)C
6. CCNC(=O)c1ccccc1Cl
7. CCOc1ccccc1C(=O)N(C(C)C)C(C)C
8. CN(C)C(=O)CC1CCCCC1

1. 2.5
2. 1.72
3. 2.4
4. 3.1
5. 3
6. 0.95
7. 3
8. 2.19

# return logP for each item in the list
1. CCNC(=O)c1ccc(OC)cc1
2. Cc1ccc(C(=O)N(C(C)C)C(C)C)cc1

1. 1.14
2. 2.5

# return logP for each item in the list
1. CN(C)C(=O)c1ccccc1
2. Cc1cccc(C(=O)N(C)C)c1

[1.2, 1.6]

====

Exercise: state measured logP for each of the molecules provided.
Give bare numbers.

Take a look at these entries with their results.
{"columns": ["structure notation", "reading"],
 "data": [
  ["CCN(CC)C(=O)c1ccc(C)cc1", 2.38],
  ["CCN(CC)C(=O)CC1CCCCC1", 3.12],
  ["CCNC(=O)c1ccccc1OCC", 2.4],
  ["CCN(CC)C(=O)c1ccc(OC)cc1", 2.5],
  ["CN(C)C(=O)c1ccccc1Cl", 1.54],
  ["CN(C)C(=O)Cc1ccccc1", 1.48],
  ["O=C(c1ccccc1)N1CCCCC1", 2.2]
]}

Please give measured logP of the following entry: CCOc1ccccc1C(=O)N(CC)CC
2.5

====

Exercise: state measured logP for each of the molecules provided.
One number for each entry.

{"columns": ["structure notation", "logP"],
 "data": [
  ["CCNC(=O)CC1CCCCC1", 2.28],
  ["Cc1ccc(C(=O)N2CCCCC2)cc1", 2.8],
  ["CCNC(=O)Cc1ccccc1", 1]
]}

# return logP for each item in the list
1. CCN(CC)C(=O)c1ccccc1
2. CCNC(=O)c1ccc(C)cc1
3. O=C(c1ccccc1Cl)N1CCCCC1
4. COc1ccc(C(=O)N2CCCCC2)cc1
5. Cc1cccc(C(=O)N2CCCCC2)c1
6. COc1ccc(C(=O)N(C(C)C)C(C)C)cc1
7. CCN(CC)C(=O)c1ccccc1Cl

1: 1.8; 2: 1.38; 3: 2.8; 4: 2.4; 5: 2.6; 6: 2.8; 7: 2.1

====

Exercise: state measured logP for each of the compounds provided.
One number for each entry.

{"columns": ["structure notation", "reading"],
 "data": [
  ["CCN(CC)C(=O)c1cccc(C)c1", 2.34],
  ["O=C(Cc1ccccc1)N1CCCCC1", 2.44],
  ["O=C(CC1CCCCC1)N1CCCCC1", 3.2],
  ["CCOc1ccccc1C(=O)N1CCCCC1", 2.6]
]}

Now consider the entry below.
Please give measured logP of the following entry: Cc1cccc(C(=O)N(C(C)C)C(C)C)c1
3
